System: U2OS
Assay: Multiplex assay against U2OS
Type: toxicity, cell-based
Conditions: human, 48 h, 1 µM, compound concentration 1 uM, replicate 1
Provide the recorded Population Healthy Nuclei (%) for the entries that follow.
Hi! Could you send only the number? It should be in %, unit omitted.

Req: // query Population Healthy Nuclei (%) value for entry CCNC1(C(N)=O)CCN(c2ncnc3c2nc(-c2ccccc2Cl)n3-c2ccc(Cl)cc2)CC1 [OTENABANT]
Resp: 64

Req: # lookup: Population Healthy Nuclei (%) of COc1c(C)cc(NC(=O)c2nn(Cc3ccc(F)cc3)c3c2CN(C(=O)c2ccc[nH]2)C[C@]3(C)C(N)=O)cc1C
Resp: 68

Req: Please report the recorded Population Healthy Nuclei (%) for O=S(=O)(c1ccccc1)c1cnc2c(N3CCNCC3)cccc2c1 [INTEPIRDINE] .
Resp: 70

Req: Data request, read-out Population Healthy Nuclei (%), for C[C@H](NC(=O)c1c(C(F)F)nn(C)c1Oc1cccc(C(F)(F)F)c1)c1ccc(C(=O)O)cc1 [PALUPIPRANT]
Resp: 73

---

Tested on: U2OS
Assay: Multiplex assay against U2OS
Format: toxicity, cell-based
Conditions: human, 48 h, 10 µM, compound concentration 10 uM, replicate 2
reported.endpoint: Total Cell Count
Reply: number alone, nothing else.

Req: Please give the measured Total Cell Count for this compound: CC1(COc2ccc3c(c2)ncn3-c2ccc3cccc(N4CCC(N)CC4)c3n2)COC1 [CRENOLANIB]
Resp: 144

Req: Recorded Total Cell Count of CC(=O)O[C@H]1C(=O)[C@@]2(C)[C@H]([C@H](OC(=O)c3ccccc3)[C@]3(O)C[C@H](OC(=O)[C@H](O)[C@@H](NC(=O)c4ccccc4)c4ccccc4)C(C)=C1C3(C)C)[C@]1(OC(C)=O)CO[C@@H]1C[C@@H]2O [PACLITAXEL] , please.
Resp: 98

Req: # get_value(readout='Total Cell Count', item= CN1CCN(c2nc3cc(C(F)(F)F)ccc3n3cccc23)CC1.O=C(O)/C=C\C(=O)O.O=C(O)/C=C\C(=O)O )
Resp: 202

---

System: Fibroblast
Test: Multiplex assay against human fibroblast
Format: toxicity, cell-based
Conditions: 48 h, 10 µM, compound concentration 10 uM, replicate 1
reported.endpoint: Population Pyknosed Nuclei (%)
Kindly answer with a numeric value in %, unit omitted.

Req: Fill blank: measured Population Pyknosed Nuclei (%) of the molecule O=C(O)c1cc2ccccc2c(Cc2c(O)c(C(=O)O)cc3ccccc23)c1O [PAMOIC ACID] is ____.
Resp: 7

Req: // lookup Population Pyknosed Nuclei (%) for COc1cc(NC(=O)CCN2CCC(OC(=O)Nc3ccccc3-c3ccccc3)CC2)c(Cl)cc1CNC[C@H](O)c1ccc(O)c2[nH]c(=O)ccc12 [BATEFENTEROL]
Resp: 22

Req: GET /values?readout=Population Pyknosed Nuclei (%)&item= N#Cc1c(N)nc(SCc2csc(-c3ccc(Cl)cc3)n2)c(C#N)c1-c1ccc(OCCO)cc1 [CAPADENOSON]
Resp: 14

Req: Given the molecule COc1c(C)cc(NC(=O)c2nn(Cc3ccc(F)cc3)c3c2CN(C(=O)c2ccc[nH]2)C[C@]3(C)C(N)=O)cc1C , what is its reported Population Pyknosed Nuclei (%)?
Resp: 17

Req: Tell me the measured Population Pyknosed Nuclei (%) of CCOc1c2c(c(OCC)c3ncccc13)CN(c1ccc(CS(=O)(=O)NC(=O)Cc3ccccc3OC)cc1C)C2=O , please.
Resp: 20

Req: Data request, read-out Population Pyknosed Nuclei (%), for C[C@H]1[C@H]2CC[C@H]3[C@@H]4CC=C5C[C@@H](N(C)C)CC[C@]5(C)[C@H]4CC[C@]23CN1C [CONESSINE]
Resp: 10

Req: Would you kindly share the measured Population Pyknosed Nuclei (%) for Cc1ccc(/C(=C\CN2CCCC2)c2ccccn2)cc1 [TRIPROLIDINE] ?
Resp: 9

---

System: HEK-293T
Assay: Multiplex assay against HEK293T
Assay type: toxicity, cell-based
Settings: human, 12 h, 1 µM, compound concentration 1 uM, replicate 2
reported.endpoint: Population Tubulin-Different-Phenotype (%)
The reply should be a number in %, with the unit left off.

Req: So what does the record say about Population Tubulin-Different-Phenotype (%) for Oc1c(CN2CCN(c3ccccn3)CC2)cc(Cl)c2cccnc12 ?
Resp: 20

Req: For the compound shown here, CSCC[C@H](NC=O)C(=O)N[C@@H](CC(C)C)C(=O)N[C@@H](Cc1ccccc1)C(=O)O , give the reported Population Tubulin-Different-Phenotype (%).
Resp: 16

Req: Entry under review: CC(C)(C)c1ccc(S(=O)(=O)Nc2ccc(Cl)cc2C(=O)c2cc[n+]([O-])cc2)cc1 . Reported Population Tubulin-Different-Phenotype (%)?
Resp: 22

Req: Record request: Population Tubulin-Different-Phenotype (%) value, item O=C(O)Cc1ccccc1Nc1c(Cl)cccc1Cl
Resp: 23

Req: Would you mind telling me what Population Tubulin-Different-Phenotype (%) value was observed for CCCN1CCC[C@@H]2Cc3n[nH]cc3C[C@H]21.Cl [QUINPIROLE HYDROCHLORIDE] ?
Resp: 26

---

Tested on: U2OS
Assay: Multiplex assay against U2OS
Assay type: toxicity, cell-based
Settings: human, 48 h, 1 µM, compound concentration 1 uM, replicate 2
I'd appreciate it if you could supply Population Apoptotic (%) values for the items below.
Write the numeric value and follow it with the unit.

Req: Entry CNC[C@H](O)c1ccc(O)c(O)c1 [EPINEPHRINE] has what Population Apoptotic (%)?
Resp: 92%

Req: So what's the measured Population Apoptotic (%) for this one? Cc1ccc(/C(=C\CN2CCCC2)c2ccccn2)cc1
Resp: 76%

Req: Please give the measured Population Apoptotic (%) for this compound: CSc1ccccc1N1CCN(CCCCCC(=O)NC2CCCc3ccccc32)CC1.Cl (stereo not given)
Resp: 95%

Req: Fill in the blank: the reported Population Apoptotic (%) of Cc1ccccc1C(=O)Nc1ccc(C(=O)N2CCCC(N(C)C)c3ccccc32)cc1.Cl (stereo not given) is ____.
Resp: 83%

Req: Give the measured Population Apoptotic (%) of CCCN1CCC[C@@H]2Cc3n[nH]cc3C[C@H]21.Cl [QUINPIROLE HYDROCHLORIDE] .
Resp: 78%

Req: Would you mind telling me what Population Apoptotic (%) value was observed for c1cc(OCCCN2CCCCC2)ccc1CN1CCCCC1 ?
Resp: 76%

Req: Fill in: Population Apoptotic (%) of CCCC(CCC)C(=O)O is ___
Resp: 91%

Req: Param item = COc1cc(NC(=O)CCN2CCC(OC(=O)Nc3ccccc3-c3ccccc3)CC2)c(Cl)cc1CNC[C@H](O)c1ccc(O)c2[nH]c(=O)ccc12 ; retrieve measured Population Apoptotic (%).
Resp: 85%

Req: Which Population Apoptotic (%) is listed for O=C(O)Cc1ccccc1Nc1c(Cl)cccc1Cl ?
Resp: 83%

Req: Reported Population Apoptotic (%), compound CC(C)(C)c1ccc(S(=O)(=O)Nc2ccc(Cl)cc2C(=O)c2cc[n+]([O-])cc2)cc1 : ____
Resp: 84%

Req: Returns the measured Population Apoptotic (%) for the input compound. Input: CC(=O)NCCc1c(Cc2ccccc2)[nH]c2ccccc12
Resp: 80%

Req: Any idea what Population Apoptotic (%) was measured for Cc1nc2ccc(Oc3ccc(F)cc3)cc2c(=O)n1C[C@H]1CCCN(C(C)C)C1.Cl ?
Resp: 93%

Req: Quick one: Population Apoptotic (%) of Cl.Clc1ccc2nsnc2c1NC1=NCCN1 [TIZANIDINE HYDROCHLORIDE] ?
Resp: 90%

Req: What does the record list as Population Apoptotic (%) for CCOc1c2c(c(OCC)c3ncccc13)CN(c1ccc(CS(=O)(=O)NC(=O)Cc3ccccc3OC)cc1C)C2=O ?
Resp: 100%

Req: Tell me the measured Population Apoptotic (%) of Cc1ccc(-c2ccc(F)cc2COc2ccc(CCC(=O)O)cc2)cc1 , please.
Resp: 95%

Req: Recorded Population Apoptotic (%) of CN1CCN2c3ncccc3Cc3ccccc3C2C1 (stereo not given) , please.
Resp: 92%

Req: May I ask what Population Apoptotic (%) has been recorded for N#Cc1c(N)nc(SCc2csc(-c3ccc(Cl)cc3)n2)c(C#N)c1-c1ccc(OCCO)cc1 ?
Resp: 84%

Req: Quick one: Population Apoptotic (%) for CN(C)c1ccnc2sc3c(=O)n(N4CCCCCC4)cnc3c12 ?
Resp: 92%

Req: Bench note: what Population Apoptotic (%) did C[C@H]1[C@H]2CC[C@H]3[C@@H]4CC=C5C[C@@H](N(C)C)CC[C@]5(C)[C@H]4CC[C@]23CN1C show?
Resp: 86%

Req: Give the measured Population Apoptotic (%) of C[C@H](NC(=O)c1c(C(F)F)nn(C)c1Oc1cccc(C(F)(F)F)c1)c1ccc(C(=O)O)cc1 .
Resp: 92%

Req: Sample COc1cc(C(=O)N(CCCc2ccccc2)Cc2ccc(CC(=O)O)cc2)cc(OC)c1C — what was its Population Apoptotic (%)?
Resp: 78%

Req: Requested field: Population Apoptotic (%). Item: CC[C@H]1OC(=O)[C@H](C)[C@@H](O[C@H]2C[C@@](C)(OC)[C@@H](O)[C@H](C)O2)[C@H](C)[C@@H](O[C@@H]2O[C@H](C)C[C@H](N(C)C)[C@H]2O)[C@@]2(C)CC(C)=C(O2)[C@H](C)[C@@H](O)[C@]1(C)O
Resp: 78%

Req: Quick check: Population Apoptotic (%) of O=C1COc2nccc(-c3ccccc3F)c2CN1Cc1cc(C(F)(F)F)cc(C(F)(F)F)c1 ?
Resp: 76%

Req: Any idea what its Population Apoptotic (%) is? The compound is O=C(NCCO)c1cccc(-c2cc(Nc3ccc(OC(F)(F)F)cc3)ncn2)c1
Resp: 96%

Req: // lookup Population Apoptotic (%) for Cc1ccc(F)cc1C(=O)Nc1ccc(C(=O)N2Cc3cccn3Cc3ccccc32)c(Cl)c1
Resp: 95%

Req: I would be grateful if you could share the reported Population Apoptotic (%) for N[C@@]1(C(=O)O)CO[C@H]2[C@H](C(=O)O)[C@H]21 .
Resp: 100%

Req: Reported Population Apoptotic (%) for CN1CCN(c2nc3cc(C(F)(F)F)ccc3n3cccc23)CC1.O=C(O)/C=C\C(=O)O.O=C(O)/C=C\C(=O)O : what is it?
Resp: 85%

Req: Any idea what its Population Apoptotic (%) is? The compound is O=S(=O)(c1ccccc1)c1cnc2c(N3CCNCC3)cccc2c1 [INTEPIRDINE]
Resp: 76%

Req: Dear colleague, I am looking for the recorded Population Apoptotic (%) of the following compound: CCCn1c(=O)c2[nH]c(C3CCCC3)nc2n(CCC)c1=O
Resp: 92%

Req: Please look up its Population Apoptotic (%): O=C(O)c1cc2ccccc2c(Cc2c(O)c(C(=O)O)cc3ccccc23)c1O
Resp: 90%

Req: Item CC1(COc2ccc3c(c2)ncn3-c2ccc3cccc(N4CCC(N)CC4)c3n2)COC1 has what recorded Population Apoptotic (%)?
Resp: 62%

Req: Give its Population Apoptotic (%) value. Item: COc1c(C)cc(NC(=O)c2nn(Cc3ccc(F)cc3)c3c2CN(C(=O)c2ccc[nH]2)C[C@]3(C)C(N)=O)cc1C
Resp: 84%

Req: Which value of Population Apoptotic (%) has been reported for C[C@@H]1C[C@H]2[C@@H]3CCC4=CC(=O)C=C[C@]4(C)[C@@]3(F)[C@@H](O)C[C@]2(C)[C@@]1(O)C(=O)CO in the records?
Resp: 71%

Req: GET /values?readout=Population Apoptotic (%)&item= COc1ccc2c(c1)C(C(=O)N(Cc1ccc(N(C)C)cc1)c1ccc(C(C)C)cc1)CCC2.Cl (stereo not given)
Resp: 93%

Req: What measured Population Apoptotic (%) goes with CN(C)CCCc1cc(C(=O)Nc2ccc(-c3ccncc3)cc2)ccc1O.Cl.Cl ?
Resp: 93%
